The origin of these recorded values is PubChem BioAssay (Tox21).

- Protocol: qHTS assay to test for compound auto fluorescence at 535 nm (green) in HepG2 cells (AID 720675); note: % is set by controls: 0 for no effect and ±100 for the full control effect
- Study Conditions: green autofluorescence 485/535 nm, 1 h; series mostly up to 91.3 µM
Activity calls are given as the source filed them. Calls come from the whole dose curve; as a rule, active = well fitted curve in the direction sought with a large enough effect in the repeat runs; inconclusive = weak or mixed curves; inactive = flat fitted curve, though single readings scatter.
Quantity Measured: fluorescence, % of fluorescein control

The examples below pair each entry with its known result.
NS(=O)(=O)c1cc2c(cc1Cl)NC(CSCc1ccccc1)=NS2(=O)=O | 0.0219% [at 18.6 µM] (inactive)
C[C@H]1O[C@@H](n2cc(F)c(=O)[nH]c2=O)[C@H](O)[C@@H]1O | inactive
Oc1ccc2c(c1)OC[C@@H](N1CCC(O)(c3ccc(F)cc3)CC1)[C@H]2O | inactive
C=CCOc1nc(OCC=C)nc(OCC=C)n1 | inactive
[O-][N+](=Nc1ccccc1)c1ccccc1 | inactive
CC(CCO)CCCC(C)(C)O (stereo not drawn) | inactive
CC(C)CCCC(C)CCCC(C)CCCCC(C)CCCC(C)CCCC(C)C (stereo not drawn) | inactive
CCC(=O)/C=C/c1ccc(OC)cc1 | inactive

Each molecule below has a reported value. Please supply its fluorescence, % of fluorescein control.
1. Nc1nc(F)nc2c1ncn2[C@@H]1O[C@H](CO)[C@@H](O)[C@@H]1O
2. CCCCCCOC(=O)CC(CC(=O)OCCCCCC)(OC(=O)CCC)C(=O)OCCCCCC
3. Nc1[nH]c(=O)ncc1F
4. CC(C)(O)c1ccccc1
5. C1=C\CC/C=C\CC/C=C\CC/1

["inactive", "inactive", "0.005% [at 18.6 µM] (inactive)", "inactive", "inactive"]
